pKi: −log10 of the molar value.
Collected pKi for Histamine H3 receptor (Homo sapiens) across several studies; compounds listed below.
ATTRIBUTE_MEASURED: pKi

Recorded results for 4 compounds are shown here.
CN(CCc1ccccc1)CCC1CCN(c2ccc(CN3CCCCC3)cc2)C1 (stereo not drawn) ... 8.89
COc1ccc(C2CN(C)Cc3cc(OCCCN4CCN(CC5CCCO5)CC4)ccc32)cc1 (stereo not drawn) ... 7.00
O=C(c1ccc(C(O)c2ccccc2)cc1)N1CCCN(C2CC2)CC1 (stereo not drawn) ... 8.70
Cc1ccn2cc(-c3ccc(OCCCN4CCCCCC4)cc3)nc2c1 ... 8.70

(1) CCN(CC)CC1CCN(c2ccc(CN3CCCC3)cc2)CC1
(2) COc1nc2cc(F)ccc2n1C1CCN(C(=O)C2CCN(Cc3ccnnc3)CC2)CC1
Task item: # argmax over pKi for candidates 1 and 2 Indicate which entry you chose by stating its label.
Reply: 1
(1: 9.10, 2: 8.70)

(1) CN1Cc2cc(OCCCN3CCCCC3)ncc2C(c2ccc(F)c(Cl)c2)C1 (stereo not drawn)
(2) CNCc1cc(C#CCCN2CCN(C3CC3)CC2)ccc1Oc1ccc(SC)cc1
(3) CN1Cc2cc(OCCCN3CCC(F)CC3)ccc2C(c2ccc(OC(F)(F)F)cc2)C1 (stereo not drawn)
Task item: Could you please order the items by pKi, going from the lowest number to the highest? Answer by listing the labels in the requested order.
Reply: 2, 3, 1

(a) CCCN1CCC(COc2ccc3c(c2)CN(C)CC3c2cccc(OC)c2)CC1 (stereo not drawn)
(b) CN1Cc2cc(OCCCN3CCC(F)CC3)ccc2C(c2ccc(SC(F)(F)F)cc2)C1 (stereo not drawn)
(c) CN1Cc2cc(OCCCN3CCCCC3)ccc2C(c2ccsc2)C1 (stereo not drawn)
Task item: Reorder: pKi, max to min. Answer by listing the labels in the requested order.
Reply: c, a, b
(c: 9.05, a: 8.22, b: 7.38)
